# System: UACC-257
# ASSAY_NOTES: NCI tumour cell line growth inhibition, 48 h
Calls of active or inactive are those of the source. Rule as the data show it: active = GI50 up to about 1.1 µM and inactive = higher.
Catalogue of GI50 readings, one per entry.

Consider the reported GI50 for these molecules:
CCCCCCC1CCC2CCCC(C)N12 (stereo unspecified); 37.9 µM (inactive)
O=C1C(=C(C(=O)c2ccccc2)C(=O)c2ccccc2)OC(c2ccccc2)=C1C(=O)c1ccccc1; 17.1 µM (inactive)
CC(C(N)=O)N(C)C(=O)c1cc2ccccc2[n+](Cc2ccccc2)c1 (stereo unspecified); > 100 µM (inactive)

Entry CCCCCCCCCCCCCCCC(=O)OCCOCCOCCOCCOCCOC(=O)CCCCCCCCCCCCCCC ; GI50 = > 100 µM (inactive)

Entry CCOP(=Nc1ccc(N(C)C)cc1)(OCC)OCC ; GI50 = > 100 µM (inactive)

Entry COc1cc([C@H]2c3cc4c(cc3O[C@@]3(O)COC(=O)[C@@H]23)OCO4)cc(OC)c1OC ; GI50 = > 100 µM (inactive)

###

# System: HOP-62
# ASSAY_NOTES: NCI tumour cell line growth inhibition, 48 h
The source made the active and inactive calls. Rule as the data show it: active = GI50 up to about 1.1 µM and inactive = higher.
ASSAY_READOUT: GI50

Consider the reported GI50 for these compounds:
CS(=O)(=O)c1ccc(-c2cc(-c3ccc(S(C)(=O)=O)cc3)[n+](-c3cc(-c4ccccc4)c([O-])c(-c4ccccc4)c3)c(-c3ccc(S(C)(=O)=O)cc3)c2)cc1; > 100 µM (inactive)
Cc1ccc(N2C(=O)/C(=C/c3ccc(N(CCC#N)CCC#N)cc3C)N=C2c2cc([N+](=O)[O-])ccc2Cl)cc1; > 100 µM (inactive)

Entry COC(=O)c1cc(OC)c(OC)c(OC)c1-c1cc2c(cc1C=O)OCO2 ; GI50 = > 10 µM (inactive)

Entry CC1CC(NC2CCCCC2)=Nc2ccccc2N1Cc1ccccc1 (stereo not drawn) ; GI50 = 7.03 µM (inactive)

###

# Test system: OVCAR-8
# ASSAY_NOTES: NCI tumour cell line growth inhibition, 48 h
Calls of active or inactive are those of the source. Cut-off read from the data, not from the text of the source: active = GI50 up to about 1.1 µM and inactive = higher.
Answer with one of the outcomes t for active, f for inactive

Check out these entries, answers already filled in.
COc1cccc(CC(C)N)c1 (stereo unspecified); f
COc1cc(NS(C)(=O)=O)ccc1Nc1c2ccccc2nc2ccccc12; t

Exercise: What call does the record list for CC(C)(C)[Si](OC1CCOC1=O)(c1ccccc1)c1ccccc1 (stereo unspecified) ?
Solution: f

Exercise: What call does the record list for COc1cc(C2C(Cl)C(=O)N2NC(=O)c2ccc(N)cc2)ccc1O (stereo unspecified) ?
Solution: f

Exercise: What call does the record list for O=C1OC(c2ccccc2)N/C1=C\c1ccc2c(c1)OCO2 (stereo unspecified) ?
Solution: f

Exercise: What call does the record list for O=c1ccccc2cccc(O)c12 ?
Solution: f

###

# System: SK-MEL-28
# ASSAY_NOTES: NCI tumour cell line growth inhibition, 48 h
The source made the active and inactive calls. Cut-off read from the data, not from the text of the source: active = GI50 up to about 1.1 µM and inactive = higher.
Catalogue of GI50 readings, one per entry.

Cc1cc2[nH]c3c(C#N)c(-c4ccccc4)c(/C=N/c4cccc(C(F)(F)F)c4)c(=O)n3c2cc1C; > 100 µM (inactive)
CN(C)c1ccc(/C=N/C23CC4CC(CC(C4)C2)C3)cc1; > 100 µM (inactive)
Cc1cc(S(=O)(=O)Nc2n[nH]c(-c3ccc(Cl)cn3)n2)c(S)cc1Cl; > 100 µM (inactive)
NN/C(=N\S(=O)(=O)c1cccc2nsnc12)Nc1ccc(Cl)cc1; > 100 µM (inactive)

Entry CCOC(=O)c1c(-c2ccc(OC)cc2)c(C#N)c(=S)n(C2OC(CO)C(O)C(O)C2O)c1C (configuration not stated) ; GI50 = > 100 µM (inactive)

Entry O=C1CCC[C@@H]2NC[C@@H](c3ccc4c(c3)OCO4)[C@H]12 ; GI50 = > 25 µM (inactive)

Entry CC(C)(C)C1=CC(CCC(=O)Nc2ccccc2[N+](=O)[O-])=NC(S)N1 (configuration not stated) ; GI50 = > 100 µM (inactive)

Entry COc1cc2c(/C=C3/C(=O)Nc4cc(C)c(O)cc43)c(Cl)[nH]c2cc1C ; GI50 = 4.91 µM (inactive)

Entry COc1ccc(C(=O)c2[nH]c(Nc3cc(C)ccn3)c(C(=S)Nc3ccccc3)c2N)cc1 ; GI50 = 17 µM (inactive)

Entry CCOC(=O)c1cc(-c2ccn(C(C)=O)c2)c(-c2cc(C)co2)[nH]1 ; GI50 = > 100 µM (inactive)

Entry Cc1nc2cn3c(c2c(=O)[nH]1)CCCCC3 ; GI50 = > 100 µM (inactive)

Entry Nc1nc(=O)n([C@@H]2CC[C@H](CO)O2)cc1F ; GI50 = > 100 µM (inactive)

Entry COC(=O)/C=C1/OC(c2ccc(Br)cc2)=C(Br)C1=O ; GI50 = 12 µM (inactive)

Entry O=CNNC(=O)Nc1ccc(Cl)cc1 ; GI50 = > 100 µM (inactive)

Entry COc1ccc(-c2ncn(C[Si](C)(C)C)c2-c2ccc(OC)cc2)cc1 ; GI50 = 2.33 µM (inactive)

Entry CS(=O)(=O)c1ccc(-c2cc(-c3ccc(S(C)(=O)=O)cc3)[n+](-c3cc(-c4ccccc4)c([O-])c(-c4ccccc4)c3)c(-c3ccc(S(C)(=O)=O)cc3)c2)cc1 ; GI50 = > 100 µM (inactive)

###

# Test system: RPMI-8226
# ASSAY_NOTES: NCI tumour cell line growth inhibition, 48 h
Active and inactive are the calls of the source. No stated cut-off is given here; in the data, active = GI50 up to about 1.1 µM and inactive = higher.
Answer with one of the outcomes true for active, false for inactive

Check out these entries, answers already filled in.
CC1=C(C(=O)Nc2ccc([N+](=O)[O-])cc2)C(c2ccc3c(c2)OCO3)C(C(=O)Nc2ccc([N+](=O)[O-])cc2)=C(C)N1; false
CC(=O)O[C@H]1C(=O)[C@@]2(C)[C@H]([C@H](OC(=O)c3ccco3)[C@]3(O)C[C@H](OC(=O)[C@H](O)[C@@H](NC(=O)c4ccccc4)c4ccccc4)C(C)=C1C3(C)C)[C@]1(OC(C)=O)CO[C@@H]1C[C@@H]2O; true

Exercise: What call does the record list for CC(=O)O[C@H]1C(=O)[C@@]2(C)C(C(OC(=O)c3ccccc3)[C@]3(O)CC(OC(=O)C(O)C(NC(=O)c4ccc(C)cc4)c4ccccc4)C(C)=C1C3(C)C)[C@]1(OC(C)=O)CO[C@@H]1C[C@@H]2O (stereo partly drawn) ?
Solution: true

###

# Test system: IGROV-1
# ASSAY_NOTES: NCI tumour cell line growth inhibition, 48 h
Active and inactive are the calls of the source. No stated cut-off is given here; in the data, active = GI50 up to about 1.1 µM and inactive = higher.
Answer with one of the outcomes YES for active, NO for inactive

CCOC(=O)c1cc(-c2ccn(C(C)=O)c2)c(-c2cc(C)co2)[nH]1; NO

Exercise: What call does the record list for CCOC(=O)Cc1nc2ccccc2s1 ?
Solution: NO

Exercise: What call does the record list for C=CCn1c(=O)ccn(COCCO)c1=O ?
Solution: NO

Exercise: What call does the record list for O=C(CCn1[nH]c(=O)c(Cl)c(Cl)c1=O)NNC(=O)C[n+]1ccccc1 ?
Solution: NO

Exercise: What call does the record list for CC(C)=CC(=O)Cc1nc2ccc([N+](=O)[O-])cc2[nH]c1=O ?
Solution: NO

Exercise: What call does the record list for CCCCCCCCCCCCCCCC(=O)OCCOCCOCCOCCOCCOC(=O)CCCCCCCCCCCCCCC ?
Solution: NO

Exercise: What call does the record list for COC1=C(OC)C(=O)C(Cc2c(C)nc3sc(C)cn23)=C(C)C1=O ?
Solution: NO

Exercise: What call does the record list for COc1ccc(O)c(C#N)c1C#N ?
Solution: NO

Exercise: What call does the record list for CCCC(=O)n1[nH]c(=O)n(C(C)(C)C)c1=O ?
Solution: NO

Exercise: What call does the record list for C/C(=N\Nc1nc2ccccc2n1C)c1ccc2ccccc2n1 ?
Solution: YES

Exercise: What call does the record list for CCOC(=O)CNc1c(OCc2ccccc2)c(=O)c1=O ?
Solution: NO

Exercise: What call does the record list for CCCCc1ccc2[n+](c1)C(C(=O)OCC)=PC2 (stereo not given) ?
Solution: NO

Exercise: What call does the record list for Cc1cc2nc3n(c2cc1C)C(c1c(F)cccc1F)SC3 (stereo not given) ?
Solution: NO

Exercise: What call does the record list for CC(C)c1cc(OCC(O)CO)cc(C(C)C)c1 (stereo not given) ?
Solution: NO

Exercise: What call does the record list for COc1ccc(C2CC(c3sc(Nc4ccc(C)cc4)nc3C)=NN2)cc1 (stereo not given) ?
Solution: NO

Exercise: What call does the record list for NS(=O)(=O)c1cc(Cl)c(NC(=S)NC(=O)Nc2ccc(Cl)c(Cl)c2)c(Cl)c1 ?
Solution: NO

Exercise: What call does the record list for Cc1cc(O)c(C(c2cccnc2)c2c(O)cc(C)[nH]c2=O)c(=O)[nH]1 ?
Solution: NO

Exercise: What call does the record list for COc1ccc(Cc2nc3ccccc3s2)cc1OC ?
Solution: NO

Exercise: What call does the record list for N[C@@H](CCC(=O)NCP(=O)(O)O)C(=O)O ?
Solution: NO

Exercise: What call does the record list for Cc1ccc(NC(=O)/C(=N/NC(=O)C[N+](C)(C)C)c2nc3ccccc3nc2O)cc1 ?
Solution: NO
